target: full length pHrodo-labelled aggregated (P301S) 2N4R tau (human, UniProt P10636 1-758, labelled with pHrodo Red Maleimide); assay: cell-based or functional assay; note: test concentration or dose not given here
Sequence (P10636 other isoform, or with tags, fused parts or gaps P301S P301S): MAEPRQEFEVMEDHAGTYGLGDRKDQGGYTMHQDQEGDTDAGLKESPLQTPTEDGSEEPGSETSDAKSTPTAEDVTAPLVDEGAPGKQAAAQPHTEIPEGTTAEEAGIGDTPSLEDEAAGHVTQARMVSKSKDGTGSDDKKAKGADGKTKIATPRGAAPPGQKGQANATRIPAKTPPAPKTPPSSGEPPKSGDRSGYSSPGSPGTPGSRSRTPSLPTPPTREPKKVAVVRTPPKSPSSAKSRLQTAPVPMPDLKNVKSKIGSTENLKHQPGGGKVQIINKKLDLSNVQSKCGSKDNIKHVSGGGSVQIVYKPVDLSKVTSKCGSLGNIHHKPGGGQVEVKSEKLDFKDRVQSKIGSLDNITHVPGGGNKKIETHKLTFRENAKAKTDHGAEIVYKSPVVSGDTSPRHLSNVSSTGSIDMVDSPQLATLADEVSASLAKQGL
Here, each record is paired with measured increase of uptake of aggregated tau into human iPSC-derived microglia data.
Write down the numeric answer in % increase and omit the unit.

Binder	Measured
Clone 32 (VH5Vκ4), humanised variant of clone #28, human IgG1 (antibody, V domains shown, also called VH5VK4; VH5Vk4) VH: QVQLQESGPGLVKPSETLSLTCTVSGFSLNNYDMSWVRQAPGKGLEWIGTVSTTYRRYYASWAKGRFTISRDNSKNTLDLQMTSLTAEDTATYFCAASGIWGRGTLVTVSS VL: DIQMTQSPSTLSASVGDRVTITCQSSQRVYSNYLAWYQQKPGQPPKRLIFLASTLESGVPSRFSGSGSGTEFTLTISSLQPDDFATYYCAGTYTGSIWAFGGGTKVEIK	243
Clone 24 (VH3Vκ4), humanised variant of clone #28, human IgG1 (antibody, V domains shown, also called VH3VK4; VH3Vk4) VH: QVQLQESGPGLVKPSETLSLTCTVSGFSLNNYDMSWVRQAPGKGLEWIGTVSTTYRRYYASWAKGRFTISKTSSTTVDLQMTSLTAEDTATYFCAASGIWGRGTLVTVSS VL: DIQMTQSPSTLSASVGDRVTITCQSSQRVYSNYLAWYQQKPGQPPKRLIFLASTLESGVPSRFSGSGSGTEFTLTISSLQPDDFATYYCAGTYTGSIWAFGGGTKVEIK	267
Clone 31 (VH5Vκ2), humanised variant of clone #28, human IgG1 (antibody, V domains shown, also called VH5VK2; VH5Vk2) VH: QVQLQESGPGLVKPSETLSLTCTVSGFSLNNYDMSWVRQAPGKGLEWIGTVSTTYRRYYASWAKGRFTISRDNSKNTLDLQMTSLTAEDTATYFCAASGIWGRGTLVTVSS VL: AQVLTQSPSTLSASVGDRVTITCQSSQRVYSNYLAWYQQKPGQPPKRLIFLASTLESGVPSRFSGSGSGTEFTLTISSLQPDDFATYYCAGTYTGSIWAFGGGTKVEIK	133

Consider the binder Clone 28 (VH4Vκ4), humanised variant of clone #28, human IgG1 (antibody, V domains shown, also called VH4VK4; VH4Vk4) VH: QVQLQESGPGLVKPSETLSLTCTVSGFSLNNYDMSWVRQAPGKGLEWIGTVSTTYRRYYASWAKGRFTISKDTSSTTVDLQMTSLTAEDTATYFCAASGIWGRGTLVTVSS VL: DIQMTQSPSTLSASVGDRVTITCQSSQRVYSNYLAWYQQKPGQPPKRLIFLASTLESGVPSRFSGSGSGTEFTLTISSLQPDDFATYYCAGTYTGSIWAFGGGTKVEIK . State its measured increase of uptake of aggregated tau into human iPSC-derived microglia.
246
